# TEST DESCRIPTION: Cytotoxicity panel, CEM
# CONDITION PARAMETERS: human, CEM cells, Cytotoxicity (CC50 uM) CEM
Form field: CC50 (one value per entry).

Worked cases, CC50 given:
>  <COMPOUND>
CC(C)OC(=O)[C@H](C)N[P@@](=O)(OC[C@H]1O[C@@H](n2ccc(=O)[nH]c2=O)[C@](C)(F)C1O)Oc1ccccc1 (stereo partly drawn) [ENUC-02026-1]

>  <CC50>
> 400 µM

$$$$
>  <COMPOUND>
CC(C)OC(=O)[C@H](C)N[P@](=O)(OC[C@H]1O[C@@H](n2ccc(=O)[nH]c2=O)[C@](C)(F)C1O)Oc1ccccc1 (stereo partly drawn) [ENUC-02025-1]

>  <CC50>
> 400 µM

$$$$

Next compound, CC50 to be filled in.
# input Report CC50 for CC(C)OC(=O)[C@H](C)NP(=O)(OC[C@H]1O[C@@H](n2ccc(=O)[nH]c2=S)[C@@H](C)C1O)Oc1ccccc1 (stereo partly drawn) [ENUC-02078-1] please.
# output 259 µM
